This collection of values is drawn from ChEMBL document CHEMBL4373711.

Protocol Summary: Selectivity index, ratio of IC50 for human A431 cells to MIC>99 for antimycobacterial activity against multi-drug resistant Mycobacterium tuberculosis 7357/1998 after 21 days
Assay type: toxicity
Condition Context: read-out: Selectivity Index
Endpoint Label: selectivity ratio at 504 h

Report selectivity ratio at 504 h for O=[N+]([O-])c1cc(-c2nnc(SCc3ccccc3)n2Cc2ccccc2)cc(C(F)(F)F)c1 please.
> 100

###

Protocol Summary: Selectivity index, ratio of IC50 for human HepG2 cells to MIC>99 for antimycobacterial activity against multi-drug resistant Mycobacterium tuberculosis Praha 4 after 14 days
Format: toxicity
Condition Context: read-out: Selectivity Index
Endpoint Label: selectivity ratio at 336 h

Report selectivity ratio at 336 h for O=[N+]([O-])c1cc(-c2nnc(SCc3ccccc3)n2Cc2ccccc2)cc(C(F)(F)F)c1 please.
> 100

###

Kindly state MIC99 for each of the entries shown.
Test system: Mycobacterium tuberculosis
Protocol Summary: microbe, parasite or virus in culture
Condition Context: 234/2005, 336 h

Some molecules with known MIC99 results, for comparison:
{"Sample Smiles": "O=[N+]([O-])c1cc(-c2nnc(SCc3ccccc3)n2Cc2ccccc2)cc(C(F)(F)F)c1", "Subject Of Test": "Mycobacterium tuberculosis", "Endpoint Label": "MIC99", "Reported Measurement": "0.06 µM"}
{"Sample Smiles": "O=[N+]([O-])c1cc(CSc2nnc(C3CCCCC3)n2Cc2ccccc2)cc(C(F)(F)F)c1", "Subject Of Test": "Mycobacterium tuberculosis", "Endpoint Label": "MIC99", "Reported Measurement": "16 µM"}
{"Sample Smiles": "CO[C@H]1/C=C/O[C@@]2(C)Oc3c(C)c(O)c4c(O)c(c(/C=N/N5CCN(C)CC5)c(O)c4c3C2=O)NC(=O)/C(C)=C\\C=C\\[C@H](C)[C@H](O)[C@@H](C)[C@@H](O)[C@@H](C)[C@H](OC(C)=O)[C@@H]1C", "Subject Of Test": "Mycobacterium tuberculosis", "Endpoint Label": "MIC99", "Reported Measurement": "> 8 µM"}
{"Sample Smiles": "O=[N+]([O-])c1cc(-c2nnc(SCc3ccc(Cl)c(Cl)c3)n2Cc2ccccc2)cc([N+](=O)[O-])c1", "Subject Of Test": "Mycobacterium tuberculosis", "Endpoint Label": "MIC99", "Reported Measurement": "0.25 µM"}
{"Sample Smiles": "O=[N+]([O-])c1cc(CSc2nnc(-c3ccccc3)n2Cc2ccccc2)cc([N+](=O)[O-])c1", "Subject Of Test": "Mycobacterium tuberculosis", "Endpoint Label": "MIC99", "Reported Measurement": "4 µM"}
{"Sample Smiles": "COc1ccc(Cn2c(SCc3cc([N+](=O)[O-])cc([N+](=O)[O-])c3)nnc2-c2ccccc2)cc1", "Subject Of Test": "Mycobacterium tuberculosis", "Endpoint Label": "MIC99", "Reported Measurement": "2 µM"}
{"Sample Smiles": "CCCCCCn1c(SCc2cc([N+](=O)[O-])cc([N+](=O)[O-])c2)nnc1-c1ccccc1", "Subject Of Test": "Mycobacterium tuberculosis", "Endpoint Label": "MIC99", "Reported Measurement": "2 µM"}
{"Sample Smiles": "O=[N+]([O-])c1cc(-c2nnc(SCc3ccc(Cl)c(Cl)c3)n2Cc2ccccc2)cc(C(F)(F)F)c1", "Subject Of Test": "Mycobacterium tuberculosis", "Endpoint Label": "MIC99", "Reported Measurement": "2 µM"}

Below is a list of molecules. For each, state its recorded MIC99.
1. COc1ccc(CSc2nnc(-c3cc([N+](=O)[O-])cc([N+](=O)[O-])c3)n2Cc2ccccc2)cc1
2. CCCCCCCCSc1nnc(-c2cc([N+](=O)[O-])cc([N+](=O)[O-])c2)n1Cc1ccccc1
3. O=[N+]([O-])c1cc(CSc2nnc(-c3ccc(Br)cc3)n2Cc2ccccc2)cc([N+](=O)[O-])c1
4. Cn1c(SCc2ccc(Cl)c(Cl)c2)nnc1-c1cc([N+](=O)[O-])cc([N+](=O)[O-])c1
5. CCn1c(SCc2ccccc2)nnc1-c1cc([N+](=O)[O-])cc([N+](=O)[O-])c1
6. Cn1c(SCc2ccc(Cl)cc2)nnc1-c1cc([N+](=O)[O-])cc([N+](=O)[O-])c1

1: 0.03 µM; 2: 0.125 µM; 3: 4 µM; 4: 0.06 µM; 5: 0.03 µM; 6: 0.125 µM

Below is a list of molecules. For each, state its recorded MIC99.
1. Cn1c(SCc2ccccc2)nnc1-c1cc([N+](=O)[O-])cc([N+](=O)[O-])c1
2. O=[N+]([O-])c1cc(-c2nnc(SCc3ccccc3)n2Cc2ccccc2)cc([N+](=O)[O-])c1
3. O=[N+]([O-])c1cc(-c2nnc(SCc3ccc(Cl)cc3)n2Cc2ccccc2)cc([N+](=O)[O-])c1
4. O=[N+]([O-])c1cc(-c2nnc(SCc3ccc(Br)cc3)n2Cc2ccccc2)cc([N+](=O)[O-])c1
5. COc1ccc(CSc2nnc(-c3cc([N+](=O)[O-])cc(C(F)(F)F)c3)n2Cc2ccccc2)cc1
6. CCCSc1nnc(-c2cc([N+](=O)[O-])cc([N+](=O)[O-])c2)n1Cc1ccccc1

["0.03 µM", "0.03 µM", "0.125 µM", "0.125 µM", "1 µM", "0.06 µM"]

###

Test system: Mycobacterium tuberculosis
Protocol Summary: Antimycobacterial activity against multi-drug resistant Mycobacterium tuberculosis Praha 4 after 21 days
Type: functional
Condition Context: Praha 4, 504 h
Lab note: anything with MIC99 below 2 µM is marked YES; values at 2 µM or higher are marked NO.

Here are 5 compounds together with their reported answers.
{"Sample Smiles": "O=[N+]([O-])c1cc(CSc2nnc(-c3ccccc3)n2Cc2ccccc2)cc([N+](=O)[O-])c1", "Label": "NO"}
{"Sample Smiles": "CCCCCCCCSc1nnc(-c2cc([N+](=O)[O-])cc([N+](=O)[O-])c2)n1Cc1ccccc1", "Label": "YES"}
{"Sample Smiles": "COc1ccc(CSc2nnc(-c3cc([N+](=O)[O-])cc([N+](=O)[O-])c3)n2Cc2ccccc2)cc1", "Label": "YES"}
{"Sample Smiles": "CCn1c(SCc2ccccc2)nnc1-c1cc([N+](=O)[O-])cc([N+](=O)[O-])c1", "Label": "YES"}
{"Sample Smiles": "COc1ccc(CSc2nnc(-c3cc([N+](=O)[O-])cc(C(F)(F)F)c3)n2Cc2ccccc2)cc1", "Label": "YES"}

Now let's try a different one.
Say whether its MIC99 is strictly beneath 2 µM. Entry: O=[N+]([O-])c1cc(CSc2nnc(-c3ccc(Br)cc3)n2Cc2ccccc2)cc([N+](=O)[O-])c1
NO

###

Protocol Summary: Selectivity index, ratio of IC50 for human A431 cells to MIC>99 for antimycobacterial activity against multi-drug resistant Mycobacterium tuberculosis 9449/2007 after 14 days
Type: toxicity
Condition Context: read-out: Selectivity Index
Endpoint Label: selectivity ratio at 336 h

Report selectivity ratio at 336 h for O=[N+]([O-])c1cc(-c2nnc(SCc3ccccc3)n2Cc2ccccc2)cc(C(F)(F)F)c1 please.
> 100

###

Protocol Summary: Selectivity index, ratio of IC50 for human A431 cells to MIC>99 for antimycobacterial activity against multi-drug resistant Mycobacterium tuberculosis Praha 4 after 14 days
Assay type: toxicity
Condition Context: read-out: Selectivity Index
Endpoint Label: selectivity ratio at 336 h

Report selectivity ratio at 336 h for O=[N+]([O-])c1cc(-c2nnc(SCc3ccccc3)n2Cc2ccccc2)cc(C(F)(F)F)c1 please.
> 100

###

System: Mycobacterium tuberculosis
Protocol Summary: Antimycobacterial activity against multi-drug resistant Mycobacterium tuberculosis 9449/2007 after 14 days
Type: functional
Condition Context: 9449/2007, 336 h
Endpoint Label: MIC99 (µM)
Answers are plain numbers, in µM.

Some molecules with known MIC99 results, for comparison:
{"Sample Smiles": "O=[N+]([O-])c1cc(-c2nnc(SCc3ccccc3)n2Cc2ccccc2)cc(C(F)(F)F)c1", "Unit Abbrev": "µM", "Reported Measurement": 0.125}
{"Sample Smiles": "O=[N+]([O-])c1cc(-c2nnc(SCc3ccc(Cl)cc3)n2Cc2ccccc2)cc([N+](=O)[O-])c1", "Unit Abbrev": "µM", "Reported Measurement": 0.25}
{"Sample Smiles": "Cn1c(SCc2ccc(Cl)cc2)nnc1-c1cc([N+](=O)[O-])cc([N+](=O)[O-])c1", "Unit Abbrev": "µM", "Reported Measurement": 0.125}
{"Sample Smiles": "O=[N+]([O-])c1cc(CSc2nnc(-c3ccccc3)n2Cc2ccccc2)cc([N+](=O)[O-])c1", "Unit Abbrev": "µM", "Reported Measurement": 4}

Below is a list of molecules. For each, state its recorded MIC99.
1. CCCCCCn1c(SCc2cc([N+](=O)[O-])cc([N+](=O)[O-])c2)nnc1-c1ccccc1
2. O=[N+]([O-])c1cc(-c2nnc(SCc3ccc(Br)cc3)n2Cc2ccccc2)cc([N+](=O)[O-])c1
3. CCCCCCCCSc1nnc(-c2cc([N+](=O)[O-])cc([N+](=O)[O-])c2)n1Cc1ccccc1

1. 2
2. 0.25
3. 0.25

Below is a list of molecules. For each, state its recorded MIC99.
1. O=[N+]([O-])c1cc(-c2nnc(SCc3ccc(Cl)c(Cl)c3)n2Cc2ccccc2)cc(C(F)(F)F)c1
2. COc1ccc(Cn2c(SCc3cc([N+](=O)[O-])cc([N+](=O)[O-])c3)nnc2-c2ccccc2)cc1
3. CCn1c(SCc2ccccc2)nnc1-c1cc([N+](=O)[O-])cc([N+](=O)[O-])c1

[2, 4, 0.03]

Below is a list of molecules. For each, state its recorded MIC99.
1. CCCSc1nnc(-c2cc([N+](=O)[O-])cc([N+](=O)[O-])c2)n1Cc1ccccc1
2. O=[N+]([O-])c1cc(CSc2nnc(C3CCCCC3)n2Cc2ccccc2)cc(C(F)(F)F)c1
3. Cn1c(SCc2ccccc2)nnc1-c1cc([N+](=O)[O-])cc([N+](=O)[O-])c1
4. COc1ccc(CSc2nnc(-c3cc([N+](=O)[O-])cc([N+](=O)[O-])c3)n2Cc2ccccc2)cc1

[0.125, 16, 0.03, 0.03]

Below is a list of molecules. For each, state its recorded MIC99.
1. O=[N+]([O-])c1cc(-c2nnc(SCc3ccc(Cl)c(Cl)c3)n2Cc2ccccc2)cc([N+](=O)[O-])c1
2. COc1ccc(CSc2nnc(-c3cc([N+](=O)[O-])cc(C(F)(F)F)c3)n2Cc2ccccc2)cc1

[0.25, 0.5]

Below is a list of molecules. For each, state its recorded MIC99.
1. O=[N+]([O-])c1cc(-c2nnc(SCc3ccccc3)n2Cc2ccccc2)cc([N+](=O)[O-])c1
2. O=[N+]([O-])c1cc(CSc2nnc(-c3ccc(Br)cc3)n2Cc2ccccc2)cc([N+](=O)[O-])c1

1: 0.03; 2: 4

Report MIC99 for Cn1c(SCc2ccc(Cl)c(Cl)c2)nnc1-c1cc([N+](=O)[O-])cc([N+](=O)[O-])c1 please.
0.06
